- TARGET_OR_SYSTEM: NET (Homo sapiens)
- METHOD_DESCRIPTION: hNET membrane radioligand binding assay (3H-nisoxetine)
- Set-up: expressed in transfected cells; host or cells: HEK-293
- CONDITION_INFO: hNET membranes (HEK-293), 1.0 nM 3H-nisoxetine; read-out: NET pKi (converted)
ASSAY_READOUT: Ki

>>> df
                                   compound     value
0  COCC(Oc1ccccc1Cl)C1CCNC1 (single isomer, unassigned) [Example 4-2]   ≤ 10 nM
1  Clc1cc(Cl)cc(O[C@H](C2CCOCC2)[C@@H]2CCNC2)c1   ≤ 10 nM
2     Clc1ccccc1O[C@H](C1CCOCC1)[C@H]1CCNC1  ≤ 100 nM
3   Clc1ccccc1O[C@@H](C1CCOCC1)[C@@H]1CCNC1   ≤ 10 nM
4  FC(F)(F)c1c(Cl)cccc1O[C@H](C1CCOCC1)[C@@H]1CCNC1   ≤ 10 nM

====

- TARGET_OR_SYSTEM: NET (Homo sapiens, UniProt P23975)
- Sequence (P23975 whole entry): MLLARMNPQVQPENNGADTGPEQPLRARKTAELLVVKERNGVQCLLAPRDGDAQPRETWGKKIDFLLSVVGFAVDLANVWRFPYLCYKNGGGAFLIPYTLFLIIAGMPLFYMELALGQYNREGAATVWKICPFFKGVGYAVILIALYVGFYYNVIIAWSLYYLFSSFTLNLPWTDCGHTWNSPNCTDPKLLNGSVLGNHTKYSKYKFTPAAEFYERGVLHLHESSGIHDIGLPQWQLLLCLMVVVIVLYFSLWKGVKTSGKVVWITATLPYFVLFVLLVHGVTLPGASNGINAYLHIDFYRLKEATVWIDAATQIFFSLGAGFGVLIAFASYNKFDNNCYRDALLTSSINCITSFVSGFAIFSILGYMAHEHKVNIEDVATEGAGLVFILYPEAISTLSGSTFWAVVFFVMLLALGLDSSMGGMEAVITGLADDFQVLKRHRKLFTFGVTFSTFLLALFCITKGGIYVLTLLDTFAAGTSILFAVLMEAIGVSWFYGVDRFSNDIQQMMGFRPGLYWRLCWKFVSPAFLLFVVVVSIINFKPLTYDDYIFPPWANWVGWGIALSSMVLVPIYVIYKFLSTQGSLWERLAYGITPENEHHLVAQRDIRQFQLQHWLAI
- METHOD_DESCRIPTION: fluorescence-based norepinephrine uptake assay (Tsuruda et al. 2010)
- Type: cell-based
- CONDITION_INFO: norepinephrine reuptake inhibition, fluorescence-based assay (data indicated by an asterisk); read-out: NET pIC50 (converted)
ASSAY_READOUT: IC50

                                   compound                    target_or_system  assay_readout      value
0  CC(C)SC[C@H](Oc1ccc(Cl)c(Cl)c1)[C@H]1CCNC1 [Example 19-7]  NET (Homo sapiens, UniProt P23975)           IC50  ≤ 0.01 µM
1  CC(C)OC[C@H](Oc1ccc(Cl)cc1Cl)[C@H]1CCNC1 [Example 8]  NET (Homo sapiens, UniProt P23975)           IC50  ≤ 0.01 µM
2  CCOC[C@H](Oc1ccc(F)cc1Cl)[C@H]1CCNC1 [Example 7-18]  NET (Homo sapiens, UniProt P23975)           IC50  ≤ 0.01 µM
3  CC(C)SC[C@@H](Oc1cccc(F)c1Cl)[C@H]1CCNC1 [Example 19-4]  NET (Homo sapiens, UniProt P23975)           IC50  ≤ 0.01 µM
4  CC(C)OC[C@@H](Oc1cccc(F)c1Cl)[C@H]1CCNC1 [Example 9-11]  NET (Homo sapiens, UniProt P23975)           IC50  ≤ 0.01 µM
5  CC(C)SC[C@@H](Oc1ccc(Cl)cc1Cl)[C@H]1CCNC1 [Example 19-5]  NET (Homo sapiens, UniProt P23975)           IC50   ≤ 0.1 µM
6  OC[C@@H](Oc1cccc(Cl)c1Cl)[C@@H]1CCNC1 (stereo in doubt) [Example 2-2]  NET (Homo sapiens, UniProt P23975)           IC50  ≤ 0.01 µM
7  CCOC[C@@H](Oc1cccc(Cl)c1C(F)(F)F)[C@H]1CCNC1 [Example 7-16]  NET (Homo sapiens, UniProt P23975)           IC50   ≤ 0.1 µM
8  FC(F)(F)c1ccc(O[C@@H](C2CCOCC2)[C@H]2CCNC2)cc1 [Example 13-11]  NET (Homo sapiens, UniProt P23975)           IC50   ≤ 0.1 µM

====

Catalogue of IC50 readings, one per entry.
- TARGET_OR_SYSTEM: SERT (Homo sapiens)
- METHOD_DESCRIPTION: hSERT neurotransmitter uptake assay (3H-5-HT)
- Assay type: cell-based
- Design: expressed in transfected cells; host or cells: HEK-293
- CONDITION_INFO: serotonin reuptake inhibition, HEK-293 hSERT cells, 3H-5-HT (no asterisk); read-out: SERT pIC50 (converted)
ASSAY_READOUT: IC50

>>> df
                                   compound     value
0  Clc1ccccc1O[C@H](C1CCOCC1)[C@H]1CCNC1 [Example 13-4]  ≤ 100 nM
1  Clc1cccc(O[C@H](C2CCOCC2)[C@H]2CCNC2)c1Cl [Example 13-12]   ≤ 10 nM
2  COCCC(Oc1ccc(Cl)cc1C)C1CCNC1 (single isomer, unassigned) [5 (2nd peak)]   ≤ 10 nM
3  Clc1ccccc1O[C@@H](C1CCOCC1)[C@@H]1CCNC1 [Example 13-3]  ≤ 100 nM
4  Fc1cccc(O[C@@H](C2CCOCC2)[C@@H]2CCNC2)c1Cl [Example 13-17]   ≤ 10 nM
5  Fc1cccc(O[C@H](C2CCOCC2)[C@H]2CCNC2)c1Cl [Example 13-15]   ≤ 10 nM
6  Fc1cccc(O[C@@H](C2CCOCC2)[C@H]2CCNC2)c1Cl [Example 13-14]  ≤ 100 nM
7  COC[C@H](Oc1ccc(Cl)cc1C)[C@H]1CCNC1 [Example 4-25]   ≤ 10 nM
8  COCC(Oc1cccc(Cl)c1Cl)C1CCNC1 (stereo not drawn) [Example 4-5]  ≤ 100 nM

====

- TARGET_OR_SYSTEM: SERT (Homo sapiens, UniProt P31645)
- Sequence (P31645 whole entry): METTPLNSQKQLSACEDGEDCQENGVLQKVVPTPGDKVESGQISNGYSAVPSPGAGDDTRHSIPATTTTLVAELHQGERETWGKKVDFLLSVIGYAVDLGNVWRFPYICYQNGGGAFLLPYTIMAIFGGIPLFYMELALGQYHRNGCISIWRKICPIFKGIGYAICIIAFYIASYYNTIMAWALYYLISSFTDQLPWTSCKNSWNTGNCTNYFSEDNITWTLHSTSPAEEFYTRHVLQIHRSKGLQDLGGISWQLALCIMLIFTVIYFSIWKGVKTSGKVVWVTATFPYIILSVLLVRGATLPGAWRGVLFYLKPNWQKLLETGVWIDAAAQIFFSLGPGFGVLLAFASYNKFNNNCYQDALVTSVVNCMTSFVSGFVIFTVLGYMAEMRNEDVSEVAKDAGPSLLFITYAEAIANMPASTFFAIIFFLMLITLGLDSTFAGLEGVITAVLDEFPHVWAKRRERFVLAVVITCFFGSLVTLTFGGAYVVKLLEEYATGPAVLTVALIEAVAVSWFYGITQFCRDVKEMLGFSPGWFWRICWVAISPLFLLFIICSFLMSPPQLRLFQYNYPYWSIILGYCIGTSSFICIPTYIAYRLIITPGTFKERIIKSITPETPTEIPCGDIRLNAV
- METHOD_DESCRIPTION: hSERT neurotransmitter uptake assay (3H-5-HT)
- Assay type: cell-based
- Design: expressed in transfected cells; host or cells: HEK-293
- CONDITION_INFO: serotonin reuptake inhibition, HEK-293 hSERT cells, 3H-5-HT (no asterisk); read-out: SERT pIC50 (converted)
ASSAY_READOUT: IC50

                                   compound  assay_readout     value
0  COC[C@@H](Oc1cccc(Cl)c1Cl)[C@H]1CCNC1 [Example 4-9]           IC50   ≤ 10 nM
1  Clc1cccc(O[C@@H](C2CCOCC2)[C@@H]2CCNC2)c1Cl [Example 12]           IC50   ≤ 10 nM
2  COC[C@H](Oc1cccc(Cl)c1C(F)(F)F)[C@H]1CCNC1 [Example 4-21]           IC50  ≤ 100 nM
3  OC[C@@H](Oc1ccc(Cl)cc1Cl)[C@@H]1CCNC1 (stereo in doubt) [Example 2-1]           IC50  ≤ 100 nM

====

- TARGET_OR_SYSTEM: UniProtKB P31645
- METHOD_DESCRIPTION: hSERT neurotransmitter uptake assay (3H-5-HT)
- Type: cell-based
- Design: expressed in transfected cells; host or cells: HEK-293
- CONDITION_INFO: serotonin reuptake inhibition, HEK-293 hSERT cells, 3H-5-HT (no asterisk); read-out: SERT pIC50 (converted)
Catalogue of IC50 readings, one per entry.
ASSAY_READOUT: IC50

In [3]: df
Out[3]:
                                    compound      value
 0  Clc1cc(Cl)cc(O[C@H](C2CCOCC2)[C@@H]2CCNC2)c1   ≤ 100 nM
 1  FC(F)(F)c1c(Cl)cccc1O[C@H](C1CCOCC1)[C@@H]1CCNC1   ≤ 100 nM
 2  COC[C@@H](Oc1cccc(Cl)c1C(F)(F)F)[C@H]1CCNC1   ≤ 100 nM
 3    CCOC[C@@H](Oc1cccc(Cl)c1Cl)[C@H]1CCNC1    ≤ 10 nM
 4  COCC(Oc1ccc(Cl)cc1C)C1CCNC1 (stereo not shown)   ≤ 100 nM
 5  Clc1cccc(O[C@H](C2CCOCC2)[C@@H]2CCNC2)c1Cl   ≤ 100 nM
 6      COC[C@@H](Oc1cccc(Cl)c1C)[C@H]1CCNC1   ≤ 100 nM
 7  Clc1ccc(O[C@@H](C2CCOCC2)[C@H]2CCNC2)c(Cl)c1   ≤ 100 nM
 8       COC[C@H](Oc1cccc(Cl)c1C)[C@H]1CCNC1    ≤ 10 nM
 9  COCC(Oc1cccc(Cl)c1C(F)(F)F)C1CCNC1 (stereo not shown)   ≤ 100 nM
10  Clc1ccc(O[C@H](C2CCOCC2)[C@@H]2CCNC2)cc1    ≤ 10 nM
11     CCOC[C@H](Oc1cccc2ccccc12)[C@H]1CCNC1    ≤ 10 nM
12      COC[C@@H](Oc1cccc(F)c1Cl)[C@H]1CCNC1   ≤ 100 nM
13    Clc1ccccc1O[C@@H](C1CCOCC1)[C@H]1CCNC1  ≤ 1000 nM
14      COC[C@H](Oc1ccc(Cl)cc1Cl)[C@H]1CCNC1    ≤ 10 nM
15  Clc1cccc(Cl)c1O[C@@H](C1CCOCC1)[C@H]1CCNC1    ≤ 10 nM
16     COC[C@@H](Oc1ccc(Cl)cc1Cl)[C@H]1CCNC1    ≤ 10 nM
17  Fc1cccc(O[C@H](C2CCOCC2)[C@@H]2CCNC2)c1Cl   ≤ 100 nM
18  Clc1cc(Cl)cc(O[C@@H](C2CCOCC2)[C@@H]2CCNC2)c1    ≤ 10 nM

Sourced from patent US8455665B2
